The following compounds are shown together with reported Mono values.
# Organism: Rattus norvegicus
# Experiment description: Open TG-GATES - Regimen: Single
# Type: toxicity, organism-based, Sprague-Dawley
# Parameters: regimen Single, gender Male, age 6 weeks
# Condition summary: in vivo, po, 0 mg/kg, 9 h, tissue Blood, route gavage, dose level Control
# number only, unit % dropped from output

The examples below pair each entry with its known result.
{"columns": ["Compound", "Mono (%)"],
 "data": [
  ["COC(=O)C1=C(C)NC(C)=C(C(=O)OC)C1c1ccccc1[N+](=O)[O-]", 2],
  ["Nc1c2c(nc3ccccc13)CCCC2", 2],
  ["Brc1ccccc1", 3]
]}

Given item "CC(C)NNC(=O)c1ccncc1" , the value recorded as its Mono is 2

Given item "Cc1nnc2n1-c1ccc(Cl)cc1C(c1ccccc1Cl)=NC2" , the value recorded as its Mono is 2

Given item "CNC(=C[N+](=O)[O-])NCCSCc1ccc(CN(C)C)o1" , the value recorded as its Mono is 2

Given item CN(C)CCC(c1ccc(Cl)cc1)c1ccccn1 (centres undefined) , the value recorded as its Mono is 2.8

Given item CN1C(=O)CCS(=O)(=O)C1c1ccc(Cl)cc1 (centres undefined) , the value recorded as its Mono is 3.4

Given item "CN/C(=N/CCSCc1nc[nH]c1C)NC#N" , the value recorded as its Mono is 3

* * *

# Species on record: Rattus norvegicus
# Experiment description: Open TG-GATES - Regimen: Single
# Format: toxicity, organism-based, Sprague-Dawley
# Design: regimen Single, gender Male, age 6 weeks
# Condition summary: in vivo, po, 0 mg/kg, 3 h, tissue Blood, route gavage, dose level Control
Assay readout: MCV

The examples below pair each entry with its known result.
{"columns": ["Compound", "MCV"],
 "data": [
  ["CNC(=C[N+](=O)[O-])NCCSCc1ccc(CN(C)C)o1 [RANITIDINE]", "62.8 fL"],
  ["NC1=NC(=O)C(c2ccccc2)O1 (centres undefined) [PEMOLINE]", "62.9 fL"],
  ["CC(C)NNC(=O)c1ccncc1 [IPRONIAZID]", "62.1 fL"],
  ["CS(=O)(=O)O.Cc1ccc(NC(=O)c2ccc(CN3CCN(C)CC3)cc2)cc1Nc1nccc(-c2cccnc2)n1 [IMATINIB MESYLATE]", "64.2 fL"]
]}

Given item Cc1nnc2n1-c1ccc(Cl)cc1C(c1ccccc1Cl)=NC2 [TRIAZOLAM] , the value recorded as its MCV is 64.7 fL

Given item COC(=O)C1=C(C)NC(C)=C(C(=O)OC)C1c1ccccc1[N+](=O)[O-] [NIFEDIPINE] , the value recorded as its MCV is 64.8 fL

Given item Brc1ccccc1 [BROMOBENZENE] , the value recorded as its MCV is 63.8 fL

Given item CN(C)CCC(c1ccc(Cl)cc1)c1ccccn1 (centres undefined) [CHLORPHENIRAMINE] , the value recorded as its MCV is 64.9 fL

Given item CN/C(=N/CCSCc1nc[nH]c1C)NC#N [CIMETIDINE] , the value recorded as its MCV is 62.5 fL

* * *

The following compounds are shown together with reported Neu values.
# Species: Rattus norvegicus
# Experiment description: Open TG-GATES - Regimen: Daily Repeat
# Format: toxicity, organism-based, Sprague-Dawley
# Set-up: regimen Daily Repeat, gender Male, age 6 weeks
# Condition summary: in vivo, po, 0 mg/kg, […], tissue Blood, route gavage, dose level Control, time 28 day
# number only, unit % dropped from output

The examples below pair each entry with its known result.
{"columns": ["Compound", "Observed value"],
 "data": [
  ["Cc1nnc2n1-c1ccc(Cl)cc1C(c1ccccc1Cl)=NC2 [TRIAZOLAM]", 15.8],
  ["CN(C)CCC(c1ccc(Cl)cc1)c1ccccn1 (centres undefined) [CHLORPHENIRAMINE]", 19.8],
  ["CNC(=C[N+](=O)[O-])NCCSCc1ccc(CN(C)C)o1 [RANITIDINE]", 16.8]
]}

// below: Neu requested for another compound
Given item COC(=O)C1=C(C)NC(C)=C(C(=O)OC)C1c1ccccc1[N+](=O)[O-] [NIFEDIPINE] , the value recorded as its Neu is 14

* * *

# Organism: Rattus norvegicus
# Experiment description: Open TG-GATES - Regimen: Daily Repeat
# Type: toxicity, organism-based, Sprague-Dawley
# Parameters: regimen Daily Repeat, gender Male, age 6 weeks
# Condition summary: in vivo, po, 1000 mg/kg, […], tissue Blood, route gavage, dose level High, time 14 day
The following compounds are shown together with reported RBC values.
# number only, unit x10_4/ul dropped from output

Given item "CNC(=C[N+](=O)[O-])NCCSCc1ccc(CN(C)C)o1" , the value recorded as its RBC is 686

Given item "O=C(OC[C@H]1O[C@@H](OC(=O)c2cc(O)c(O)c(OC(=O)c3cc(O)c(O)c(O)c3)c2)[C@H](OC(=O)c2cc(O)c(O)c(OC(=O)c3cc(O)c(O)c(O)c3)c2)[C@@H](OC(=O)c2cc(O)c(O)c(OC(=O)c3cc(O)c(O)c(O)c3)c2)[C@@H]1OC(=O)c1cc(O)c(O)c(OC(=O)c2cc(O)c(O)c(O)c2)c1)c1cc(O)c(O)c(OC(=O)c2cc(O)c(O)c(O)c2)c1" , the value recorded as its RBC is 705.6

Given item "COC(=O)C1=C(C)NC(C)=C(C(=O)OC)C1c1ccccc1[N+](=O)[O-]" , the value recorded as its RBC is 697.2

Given item "Cc1nnc2n1-c1ccc(Cl)cc1C(c1ccccc1Cl)=NC2" , the value recorded as its RBC is 711.4

* * *

# Species on record: Rattus norvegicus
# Experiment description: Open TG-GATES - Regimen: Single
# Format: toxicity, organism-based, Sprague-Dawley
# Set-up: regimen Single, gender Male, age 6 weeks
# Condition summary: in vivo, po, 0 mg/kg, 24 h, tissue Kidney, route gavage, dose level Control
The following compounds are shown together with reported KIDNEY_R values.
# number only, unit g dropped from output

{"columns": ["Compound", "Unit of measurement", "KIDNEY_R"],
 "data": [
  ["CN(C)CCC(c1ccc(Cl)cc1)c1ccccn1 (stereo not drawn)", "g", 0.9],
  ["O=C(OC[C@H]1O[C@@H](OC(=O)c2cc(O)c(O)c(OC(=O)c3cc(O)c(O)c(O)c3)c2)[C@H](OC(=O)c2cc(O)c(O)c(OC(=O)c3cc(O)c(O)c(O)c3)c2)[C@@H](OC(=O)c2cc(O)c(O)c(OC(=O)c3cc(O)c(O)c(O)c3)c2)[C@@H]1OC(=O)c1cc(O)c(O)c(OC(=O)c2cc(O)c(O)c(O)c2)c1)c1cc(O)c(O)c(OC(=O)c2cc(O)c(O)c(O)c2)c1", "g", 0.9]
]}

// below: KIDNEY_R requested for another compound
Given item CS(=O)(=O)O.Cc1ccc(NC(=O)c2ccc(CN3CCN(C)CC3)cc2)cc1Nc1nccc(-c2cccnc2)n1 [IMATINIB MESYLATE] , the value recorded as its KIDNEY_R is 0.9

* * *

The following compounds are shown together with reported Eos values.
# Organism: Rattus norvegicus
# Experiment description: Open TG-GATES - Regimen: Single
# Assay type: toxicity, organism-based, Sprague-Dawley
# Design: regimen Single, gender Male, age 6 weeks
# Condition summary: in vivo, po, 0 mg/kg, 3 h, tissue Blood, route gavage, dose level Control
# number only, unit % dropped from output

{"columns": ["Compound", "Eos [%]"],
 "data": [
  ["CNC(=C[N+](=O)[O-])NCCSCc1ccc(CN(C)C)o1 [RANITIDINE]", 0.4],
  ["Brc1ccccc1 [BROMOBENZENE]", 0.8],
  ["COC(=O)C1=C(C)NC(C)=C(C(=O)OC)C1c1ccccc1[N+](=O)[O-] [NIFEDIPINE]", 0.8],
  ["CN(C)CCC(c1ccc(Cl)cc1)c1ccccn1 (centres undefined) [CHLORPHENIRAMINE]", 0.8]
]}

// below: Eos requested for another compound
Given item CN/C(=N/CCSCc1nc[nH]c1C)NC#N [CIMETIDINE] , the value recorded as its Eos is 1

* * *

# Organism: Rattus norvegicus
# Experiment description: Open TG-GATES - Regimen: Single
# Format: toxicity, organism-based, Sprague-Dawley
# Set-up: regimen Single, gender Male, age 6 weeks
# Condition summary: in vivo, po, 0 mg/kg, 3 h, tissue Plasma, route gavage, dose level Control
Assay readout: Na (meq/L)
# number only, unit meq/L dropped from output

{"columns": ["Molecule", "Unit of measurement", "Na"],
 "data": [
  ["CC(C)NNC(=O)c1ccncc1", "meq/L", 142.4],
  ["CCCc1cc(=O)[nH]c(=S)[nH]1", "meq/L", 138.6],
  ["CN1C(=O)CCS(=O)(=O)C1c1ccc(Cl)cc1 (configuration not stated)", "meq/L", 140.2],
  ["Nc1c2c(nc3ccccc13)CCCC2", "meq/L", 142.6],
  ["CN(C)CCC(c1ccc(Cl)cc1)c1ccccn1 (configuration not stated)", "meq/L", 142.8],
  ["O=C(OC[C@H]1O[C@@H](OC(=O)c2cc(O)c(O)c(OC(=O)c3cc(O)c(O)c(O)c3)c2)[C@H](OC(=O)c2cc(O)c(O)c(OC(=O)c3cc(O)c(O)c(O)c3)c2)[C@@H](OC(=O)c2cc(O)c(O)c(OC(=O)c3cc(O)c(O)c(O)c3)c2)[C@@H]1OC(=O)c1cc(O)c(O)c(OC(=O)c2cc(O)c(O)c(O)c2)c1)c1cc(O)c(O)c(OC(=O)c2cc(O)c(O)c(O)c2)c1", "meq/L", 139.4]
]}

Given item "CNC(=C[N+](=O)[O-])NCCSCc1ccc(CN(C)C)o1" , the value recorded as its Na is 140.8
